# credit: patent US20180163271A1

System: MDAMB436
Assay: high throughput growth inhibition assay
Assay type: cell-based, human
Settings: Homo sapiens, MDA-MB-436, MDAMB436, TNBC; viable cells counted day 1 and day 6
Description: Rucaparib sensitivity data in a large panel of human cancer cells lines were generated using a high throughput growth inhibition assay. Briefly, cells were plated into 24-well tissue culture plates at a cell density of 5 to 20×10^3 cells. Rucaparib was treated in concentrations ranging from 0.005 to 10 μM. Viable cells were counted on day 1 and day 6 of rucaparib treatment using a Beckman Coulter Z2 particle counter. […]
MEASUREMENT NAME: EC50

Prompt: # input molecule: CNCc1ccc(-c2[nH]c3cc(F)cc4c3c2CCNC4=O)cc1 ; wanted: its EC50
Completion: < 500 nM

====

Tested on: EFM19
Test: high throughput growth inhibition assay
Assay type: cell-based
Settings: Homo sapiens, EFM-19; EFM19, Non-TNBC; viable cells counted day 1 and day 6
MEASUREMENT NAME: pEC50
When answering, recall that pEC50 equals minus log10 of the concentration in mol/L, and write that number alone.

Prompt: # input compound: CNCc1ccc(-c2[nH]c3cc(F)cc4c3c2CCNC4=O)cc1 ; wanted: its pEC50
Completion: 5.59

====

Tested on: MDAMB157
Assay: high throughput growth inhibition assay
Assay type: cell-based
Conditions: Homo sapiens, MDA-MB-157; MDAMB157, TNBC; viable cells counted day 1 and day 6
MEASUREMENT NAME: pEC50
When answering, recall that pEC50 equals minus log10 of the concentration in mol/L, and write that number alone.

Prompt: # input compound: CNCc1ccc(-c2[nH]c3cc(F)cc4c3c2CCNC4=O)cc1 ; wanted: its pEC50
Completion: 5.76

====

System: MDAMB453
Experiment: high throughput growth inhibition assay
Format: cell-based
Details: Homo sapiens, MDA-MB-453; MDAMB453, TNBC; viable cells counted day 1 and day 6
MEASUREMENT NAME: pEC50
When answering, recall that pEC50 equals minus log10 of the concentration in mol/L, and write that number alone.

Prompt: # input molecule: CNCc1ccc(-c2[nH]c3cc(F)cc4c3c2CCNC4=O)cc1 [rucaparib] ; wanted: its pEC50
Completion: 5.72

====

System: HCC1419
Experiment: high throughput growth inhibition assay
Type: cell-based
Conditions: Homo sapiens; HCC1419, Non-TNBC; viable cells counted day 1 and day 6
MEASUREMENT NAME: pEC50
When answering, recall that pEC50 equals minus log10 of the concentration in mol/L, and write that number alone.

Prompt: Item CNCc1ccc(-c2[nH]c3cc(F)cc4c3c2CCNC4=O)cc1 with HCC1419 - pEC50?
Completion: 5.38

====

System: CAL51
Test: high throughput growth inhibition assay
Format: cell-based
Settings: Homo sapiens, CAL-51; CAL51, TNBC; viable cells counted day 1 and day 6
MEASUREMENT NAME: EC50

Prompt: # input compound: CNCc1ccc(-c2[nH]c3cc(F)cc4c3c2CCNC4=O)cc1 ; wanted: its EC50
Completion: > 10 µM

====

Tested on: CAMA1
Experiment: high throughput growth inhibition assay
Type: cell-based
Conditions: Homo sapiens, CAMA-1; CAMA1, Non-TNBC; viable cells counted day 1 and day 6
MEASUREMENT NAME: EC50 (µM)
Please give a number only; it is taken to be in µM.

Prompt: Item CNCc1ccc(-c2[nH]c3cc(F)cc4c3c2CCNC4=O)cc1 with CAMA1 - EC50?
Completion: 9.13
